Provide the reported IC50 of each item.
Test system: LNCaP
procedure summary: Cell growth inhibition assay, prostate cancer cell line LNCaP (medium with 10 ng/mL IL-6)
Type: cell-based
test parameters: Homo sapiens, medium supplemented with 10 ng/mL of IL-6, 10,000 cells/well

[Q] IC50 lookup needed for `CC(C)(c1ccsc1)c1cc(Cl)cc(NC(=O)c2cc3cc(NS(C)(=O)=O)ccc3s2)c1` , thanks.
[A] 0.071 µM

[Q] Recorded IC50 for `CS(=O)(=O)Nc1ccc2cc(C(=O)Nc3cc(-c4cccnc4)cc(-c4ccc(F)cc4F)c3)[nH]c2c1` , please?
[A] 6.6 µM

[Q] Fill in the blank: the reported IC50 of `CC(C)Oc1cc(Br)cc(C(C)(C)c2cc(Cl)cc(NC(=O)c3cc4cc(NS(C)(=O)=O)ccc4s3)c2)c1` is ____.
[A] 0.056 µM

[Q] Value lookup for IC50; key = `CC(C)(c1ccc(Br)cc1)c1cc(Cl)cc(NC(=O)c2cc3cc(NS(C)(=O)=O)ccc3s2)c1`
[A] 0.059 µM

[Q] Could you tell me which IC50 is on file for `CC(C)(c1ccc(Cl)cc1)c1cc(Cl)cc(NC(=O)c2cc3cc(NS(=O)(=O)CCO)c(Cl)cc3s2)c1` ?
[A] 0.056 µM

[Q] Name the reported IC50 value associated with the molecule `O=C(Nc1cccc(-c2ccccc2C(F)(F)F)c1)c1cc2ccc([N+](=O)[O-])cc2n1CCN1CCOCC1`
[A] > 10 µM

[Q] IC50 for `CC(C)(c1cccc(NC(=O)c2cc3ccc(N(CC(N)=O)S(C)(=O)=O)cc3[nH]2)c1)c1cc(O)cc(OC(F)(F)F)c1` ?
[A] > 10 µM

====

Tested on: LNCaP
procedure summary: Cell growth inhibition assay, prostate cancer cell line LNCaP (medium with 10 ng/mL IL-6)
Format: cell-based
test parameters: Homo sapiens, medium supplemented with 10 ng/mL of IL-6, 10,000 cells/well
Quick rule for you: IC50 under 0.1 µM gets TRUE, anything else gets FALSE.

[Q] Input CC(C)(c1cc(Cl)cc(NC(=O)c2cc3cc(NS(C)(=O)=O)ccc3s2)c1)c1ccc(Cl)s1 [Example 174] ; condition: IC50 strictly below 0.1 µM. Does it hold?
[A] TRUE

[Q] Say whether its IC50 is strictly beneath 0.1 µM. Entry: Cn1cccc1-c1cc(Cl)cc(NC(=O)c2cc3cc(NS(C)(=O)=O)ccc3s2)c1 [Example 334]
[A] FALSE

[Q] # strict comparison: is reported IC50 < 0.1 µM? input = CC(C)Oc1cc(OC(F)(F)F)cc(C(C)(C)c2cc(Cl)cc(NC(=O)c3cc4cc(NS(=O)(=O)CC5CCCO5)ccc4s3)c2)c1 (stereo not drawn) [Example 197]
[A] TRUE

[Q] Strictly below 0.1 µM: is that where IC50 of CS(=O)(=O)Nc1ccc2sc(C(=O)Nc3cc(Br)cc(S(=O)(=O)N4CCC(F)(F)CC4)c3)cc2c1 [Example 420] sits?
[A] FALSE

[Q] Below 0.1 µM on IC50? Entry CC(C)(c1ccc(F)cc1)c1cccc(NC(=O)c2cc3cc(NS(C)(=O)=O)ccc3o2)c1 [Example 28]
[A] FALSE

[Q] Threshold test, IC50 < 0.1 µM: COC(=O)c1ccc(Cl)c(-c2cccc(NC(=O)c3cc4ccc(NS(C)(=O)=O)cc4[nH]3)c2)c1 [Example 299]
[A] FALSE

[Q] Take the molecule CC(C)c1ccc(C(C)(C)c2cc(Cl)cc(NC(=O)c3cc4cc(NS(C)(=O)=O)c(Cl)cc4s3)c2)s1 [Example 180] and say whether its IC50 is less than 0.1 µM.
[A] TRUE

[Q] # check: IC50 < 0.1 µM for CC(C)(c1cc(Cl)cc(NC(=O)c2cc3cc(NS(C)(=O)=O)ccc3s2)c1)n1ncccc1=O [Example 190]
[A] FALSE

[Q] hey, is IC50 for CS(=O)(=O)Nc1ccc2sc(C(=O)Nc3cc(Cl)cc(Nc4ccc(F)cc4F)c3)cc2c1 [Example 438] lower than 0.1 µM or not?
[A] FALSE

[Q] Is it true that IC50 reported for CC(C)(c1cccc(CN2CCNCC2)c1)c1cc(Br)cc(NC(=O)c2cc3cc(NS(C)(=O)=O)ccc3s2)c1 [Example 118] is less than 0.1 µM?
[A] FALSE

[Q] Please check: IC50 for CS(=O)(=O)Nc1ccc2cc(C(=O)Nc3cccc(S(=O)(=O)c4cccc(OC(F)(F)F)c4)c3)[nH]c2c1 [Example 396] , strictly under 0.1 µM or not?
[A] FALSE

[Q] Answer whether the molecule CC(C)Oc1cc(OC(F)(F)F)cc(C(C)(C)c2cc(Cl)cc(NC(=O)c3cc4cc(NS(C)(=O)=O)c(Cl)cc4s3)c2)c1 [Example 105] has IC50 strictly less than 0.1 µM
[A] TRUE

[Q] Hello, I'm reviewing records and need to know if IC50 of CS(=O)(=O)Nc1ccc2sc(C(=O)Nc3cccc(C4(c5ccccc5)CC4)c3)cc2c1 [Example 421] is below 0.1 µM. Could you check?
[A] FALSE

[Q] I wonder whether CC(C)(c1cccc(CN2CCOCC2)c1)c1cc(Br)cc(NC(=O)c2cc3cc(NS(C)(=O)=O)ccc3s2)c1 [Example 50] has IC50 below 0.1 µM. Can you tell?
[A] FALSE

[Q] Lab note: confirm whether the reported IC50 for this molecule is below 0.1 µM, equality not counting. molecule: Cn1cncc1-c1cc(Cl)cc(NC(=O)c2cc3cc(NS(C)(=O)=O)ccc3s2)c1 [Example 340]
[A] FALSE

====

Test system: HEL92.1.7
procedure summary: Cell growth inhibition assay, blood cancer cell line HEL92.1.7
Type: cell-based
test parameters: Homo sapiens, HEL 92.1.7, HEL92.1.7 blood cancer cell line
Exercise: for every item that follows, state its recorded log10 of IC50.
Scale: decimal log of IC50, IC50 in µM.

[Q] Please look up its log10 of IC50: `CC(C)(c1cc(Cl)cc(NC(=O)c2cc3cc(NS(C)(=O)=O)ccc3s2)c1)c1cc(OCC(F)F)cc(OC(F)(F)F)c1`
[A] -1.00

[Q] Please give the measured log10 of IC50 for this compound: `CC(C)(c1cc(Cl)cc(NC(=O)c2cc3cc(NS(C)(=O)=O)ccc3s2)c1)c1cc(OCC(F)(F)F)cc(OC(F)(F)F)c1`
[A] -1.06

[Q] I have this compound here, `COc1cc(OC(F)(F)F)cc(C(C)(C)c2cc(NC(=O)c3cc4cc(NS(C)(=O)=O)ccc4s3)cc(Cl)n2)c1` , and I need its recorded log10 of IC50.
[A] -0.85

[Q] Reported log10 of IC50 for `CC(C)Oc1cc(OC(F)(F)F)cc(C(C)(C)c2cc(Cl)cc(NC(=O)c3cc4cc(NS(C)(=O)=O)ccc4s3)c2)c1` : what is it?
[A] -1.62

[Q] Quick check: log10 of IC50 of `CC(C)(c1cc(F)cc(NC(=O)c2cc3cc(NS(C)(=O)=O)ccc3s2)c1)c1cc(CN2CCOCC2)cc(OC(F)(F)C(F)F)c1` ?
[A] -0.52

[Q] Which log10 of IC50 reading was recorded for the compound `COc1cc(OC(F)(F)F)cc(C(C)(C)c2cc(Cl)cc(NC(=O)c3cc4cc(NS(C)(=O)=O)cnc4s3)c2)c1` ?
[A] -0.74

====

For each record, write down the corresponding IC50.
measurement target: STAT3 (Homo sapiens)
Construct: plasmid pSTAT3-TA-luc), which contains a stably operating STAT3 promoter; endogenous in cells
Sequence (P40763 whole entry): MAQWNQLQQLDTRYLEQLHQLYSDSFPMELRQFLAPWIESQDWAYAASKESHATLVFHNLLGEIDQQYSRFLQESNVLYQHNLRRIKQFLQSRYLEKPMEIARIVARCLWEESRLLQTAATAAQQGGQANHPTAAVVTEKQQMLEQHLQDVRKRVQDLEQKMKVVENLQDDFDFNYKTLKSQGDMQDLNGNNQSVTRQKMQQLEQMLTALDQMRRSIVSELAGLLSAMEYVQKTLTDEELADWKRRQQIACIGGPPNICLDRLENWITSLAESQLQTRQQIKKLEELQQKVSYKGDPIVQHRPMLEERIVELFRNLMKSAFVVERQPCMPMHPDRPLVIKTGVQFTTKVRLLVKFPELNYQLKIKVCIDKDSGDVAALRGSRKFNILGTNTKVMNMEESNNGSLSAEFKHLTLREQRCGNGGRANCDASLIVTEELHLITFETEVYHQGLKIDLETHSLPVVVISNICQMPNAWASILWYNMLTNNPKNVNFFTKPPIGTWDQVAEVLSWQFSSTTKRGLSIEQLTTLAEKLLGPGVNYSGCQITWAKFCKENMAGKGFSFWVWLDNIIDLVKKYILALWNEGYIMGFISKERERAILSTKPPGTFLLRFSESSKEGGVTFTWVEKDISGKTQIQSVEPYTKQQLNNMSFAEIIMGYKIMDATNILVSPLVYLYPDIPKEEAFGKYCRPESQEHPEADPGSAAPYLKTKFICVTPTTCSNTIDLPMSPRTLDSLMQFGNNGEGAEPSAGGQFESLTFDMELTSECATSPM
procedure summary: STAT3 reporter gene assay (luciferase), LNCaP stable cell line (pSTAT3-TA-luc), IL-6 stimulation
Assay type: cell-based

[Q] Which IC50 value belongs to `CS(=O)(=O)Nc1ccc2sc(C(=O)Nc3cc(OC(F)F)cc(C4(c5ccc(F)cc5)CC4)c3)cc2c1` ?
[A] 0.19 µM

[Q] Report IC50 for `CC(C)(C)OC(=O)N1CCC(Oc2cc(OC(F)(F)F)cc(C(C)(C)c3cc(Cl)cc(NC(=O)c4cc5cc(NS(C)(=O)=O)ccc5s4)c3)c2)CC1` please.
[A] 0.11 µM

[Q] If you can, please state the reported IC50 value of `COc1cc(OC(F)(F)F)cc(C(C)(C)c2cccc(NC(=O)c3cc4cc(NS(C)(=O)=O)ccc4s3)c2)c1` .
[A] 0.035 µM

[Q] Which IC50 value belongs to `CN(c1ccc2sc(C(=O)Nc3cc(Cl)cc(Oc4ccc(Cl)cc4)c3)cc2c1)S(C)(=O)=O` ?
[A] 0.012 µM

[Q] Would you mind telling me what IC50 value was observed for `O=C(Nc1cccc(-c2ccc(F)cc2F)c1)c1nc2cc([N+](=O)[O-])ccc2[nH]1` ?
[A] > 10 µM

[Q] Recorded IC50 of `CS(=O)(=O)Nc1ccc2cc(C(=O)Nc3cccc(C(F)(F)c4ccncc4)c3)[nH]c2c1` , please.
[A] 3.8 µM

[Q] For the molecule shown here, `CS(=O)(=O)Nc1ccc2cc(C(=O)Nc3cccc(S(=O)(=O)c4cccnc4)c3)[nH]c2c1` , give the reported IC50.
[A] > 10 µM
